Value source: the nanobody polyreactivity screen of Harvey et al. (2022)

Experiment: yeast display, Sf9 membrane polyspecificity reagent, FACS + sequencing; frameworks hold sequencing errors
observed property: polyreactivity (PSR sort gate)

Here are 4 sequences together with their reported answers.
| residue codes | polyreactivity (PSR sort gate) |
| --- | --- |
| QVQLVESRGGLVKAGGSLRLSCAASGRIFRKYDMGWYRQAPGKERELVAAISGTGITYYADSVKGRFTISRDNAKNTVYLQMNRLKPEDTAVYYCARGSKPRAWSWAFASATSIYEYWGQGTQLTVSS | low polyreactivity |
| QVQLVESGARLVQAGGSLRLSCAASGFIFRAYTMGWYRQAPGKERELVAAITSSGGRTYYADSVKGRFTISRDNAKNTVYLQMNSLKPEDTAVYYCATVDAKWKQFDYWGQGTQVTVSS | high polyreactivity |
| QDQLVESRGGIVQAGGRLRLSCAASGSRFGGYGMGWYRQAPWKEREFVAVITKRGGSTYYADSVKGRFTISRDNAYNTVYLQMNSLKPEDTAVDYCNKVGYYASVLCYDYWGQGTQVTVSS | high polyreactivity |
| QVQLGESGGGLVQAGGSLRLSCAASGITFRWYAMGWYRQAPGKERELVAAITSVDSTDYADSVKGRFTISRDNAKNTVYLQMNSLKPEDTAVYYCAAQPYDWFYYYYVIFPHYEYWGQGTQVTVSS | low polyreactivity |

Q. What measured polyreactivity (PSR sort gate) goes with QVLLQESGGGLVQAGGSLRLSCAASGTISTDIRMGWYRLAPGKEREFVASIDGCSTTYYADSVKGRFTISRDNAKNTVFLQMNSLKPEDTAMYYCAAREATEFYLYYWGQGTQVTVSS ?
A. low polyreactivity

Q. What measured polyreactivity (PSR sort gate) goes with QVQLVESGGGLVQAGGSLRLSCASSGRIFSDYAMGWYRQAPGKEMEFVAAISSSGGRTYYADSVKGRFTISRDNAKNTFYLQMNSLKQEDTAVYYCNRYYGYYNTGRYGYWGQGTQVTVSS ?
A. high polyreactivity

Q. What measured polyreactivity (PSR sort gate) goes with QVQLVESGGGLVQAGGSLRLSCAASGRIFAYNTMGWYREAPGKERELVAVSTSGGSTNYADSVKGRFTISRDNAKNTVYLQMNSLKPEDSAVYYCAKRPYGRSGGSRYDYWGQGTQVTVSS ?
A. high polyreactivity

Q. What measured polyreactivity (PSR sort gate) goes with QVQLVESGGGLVQAGGSLRLSCAASGRTFYVNAMGWYRQAPGKEREFVATITRTGGDTYYADSVKGRFTISRDNAKNTVYLQMNSHKPEDTAVFYCNAEGYTVKYWYSRYDYWGQGTQVTVSS ?
A. high polyreactivity

Q. What measured polyreactivity (PSR sort gate) goes with QVQLVESGGGLVQAGGSLRLSCAASGVIFESNAMAWYRQAPGKERELVAANTKRGGSTYYADSVKGRFTISRDNAKNTVYLQMKSLKPEDTAVYYCNALGYWRRVVDGFDNWGQGTQVTVSS ?
A. high polyreactivity

Q. What measured polyreactivity (PSR sort gate) goes with QVQLVESGGGLVQAGGSLRLSCAASGIIFDTNAMGWYRPAPGKERELVAAITRSGGGTYYADSVKGRFSISRDNAKNTVYLQMNSLKPDDTAVYYCAARRQRDRYGYWGQGTQLTVSS ?
A. high polyreactivity

Q. What measured polyreactivity (PSR sort gate) goes with QVQLVESGGGLVQAGGSLRLSCAASGRTFAWYTMGWYRQAPGKERELVASITKRGGRTYYADSVKGRFTISRDNAKNTVYLQMNSLKPEDTAVYYCAAGASQGRGTVTFDYWGQGTQVTVSS ?
A. high polyreactivity

Q. What measured polyreactivity (PSR sort gate) goes with QVQLVESGGGLVQAGGSLRLSCAASGTFDAYAMGWYRQAPGKERELVASISSSGGSTYYADSVKGRFTISRDNAKNTVYLQMNSLKPEDTAVYYCAATDFWYSGYYWGQGTQVTVSS ?
A. low polyreactivity

Q. What measured polyreactivity (PSR sort gate) goes with QVQLVETGGCLVQAGGSLRLSCAASGSTFYLYAMGWNRQAPGKETDLVASISQSGGSTIYADSVKGRFTISRDNAKNTVYLHMNSLKPEDTAVYYFAAGAGYFRYPRSGVWYVTLYDYWGEGTQVTVSS ?
A. high polyreactivity

Q. What measured polyreactivity (PSR sort gate) goes with QVQLVESGGGLVQARGSLRLSCAPSGFIFDVYAMGWYRQAPGKERELVAAISSSGGRTYYADSVKGRFTISRDNAKNTVYLQMNSLKPEDTAVYYCAAKTDSRTKVYTADYWGQGTQVTVSS ?
A. high polyreactivity

Q. What measured polyreactivity (PSR sort gate) goes with QVQLLESGGGLVQAGGSLRLSCAASGSIFWYNAMGWYRQAPGKERELVATISSRGDGTYYADSVKGRFTISRDNAKNTVYLQMNSLKPEDTAVYYCNKYRQQGWEFDYWGQGTQVTVSS ?
A. high polyreactivity
